Source of measurements: patent US6083986A

Biological target: human Kv1.5 potassium channel (Homo sapiens)
Construct: Error-free parts of these clones were then ligated together to form a complete cDNA construct
Sequence (P22460 whole entry): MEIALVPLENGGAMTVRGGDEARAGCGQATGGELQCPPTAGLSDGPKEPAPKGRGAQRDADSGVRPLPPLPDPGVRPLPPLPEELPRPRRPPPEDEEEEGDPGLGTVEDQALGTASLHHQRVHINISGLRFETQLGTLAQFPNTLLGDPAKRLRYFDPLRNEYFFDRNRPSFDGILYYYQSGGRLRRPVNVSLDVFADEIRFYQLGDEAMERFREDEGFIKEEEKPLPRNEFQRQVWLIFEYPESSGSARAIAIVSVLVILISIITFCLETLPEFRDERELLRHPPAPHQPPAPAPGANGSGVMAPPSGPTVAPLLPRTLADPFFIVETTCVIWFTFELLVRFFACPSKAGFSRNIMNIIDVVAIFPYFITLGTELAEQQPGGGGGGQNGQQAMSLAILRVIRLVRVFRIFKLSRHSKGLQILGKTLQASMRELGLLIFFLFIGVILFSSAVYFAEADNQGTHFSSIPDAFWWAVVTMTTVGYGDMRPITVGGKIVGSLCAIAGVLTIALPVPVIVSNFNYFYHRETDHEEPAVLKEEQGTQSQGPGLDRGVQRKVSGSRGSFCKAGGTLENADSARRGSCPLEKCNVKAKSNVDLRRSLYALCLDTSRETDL
Experiment: Whole cell patch clamp, inhibition of Kv1.5 current in CHO cells
Details: Kv1.5; whole cell patch clamp; approx. values; read-out: 50% Channel Inhibition (IC50)
For each record, write down the corresponding IC50.

Short answer for CCc1ccc(S(=O)(=O)NC2c3cc(NC(=O)c4cccc(C)c4)ccc3CC2O)cc1 (stereo not drawn) : IC50 was ~1 µM

Short answer for CCCCCOc1ccc(C(=O)Nc2ccc3c(c2)C(NS(=O)(=O)c2ccc(CC)cc2)C(O)C3)cc1 (stereo not drawn) : IC50 was ~1 µM

Short answer for CCc1ccc(S(=O)(=O)NC2c3cc(NC(=O)CCC4CCCC4)ccc3CC2O)cc1 (stereo not drawn) : IC50 was ~1 µM

Short answer for COc1cccc(C(=O)Nc2ccc3c(c2)C(NS(=O)(=O)c2ccccc2)C(O)C3)c1 (stereo not drawn) : IC50 was > 1 µM

Short answer for COc1ccc(S(=O)(=O)NC2c3cc(NC(=O)c4cccc(OC)c4)ccc3CC2O)cc1 (stereo not drawn) : IC50 was > 1 µM

Short answer for CCc1ccc(S(=O)(=O)NC2c3cc(NC(=O)c4ccccc4F)ccc3CC2O)cc1 (stereo not drawn) : IC50 was > 1 µM

Short answer for CCc1ccc(S(=O)(=O)NC2c3cc(NC(=O)C4CC5CCC4CC5)ccc3CC2O)cc1 (stereo not drawn) : IC50 was ~1 µM

Short answer for CCc1ccc(S(=O)(=O)N[C@H]2c3cc(NC(=O)c4cccc(OC)c4)ccc3C[C@@H]2O)cc1 (relative stereo) : IC50 was ~0.1 µM

Short answer for COc1cccc(C(=O)Nc2ccc3c(c2)C(NS(=O)(=O)c2ccc4ccccc4c2)C(O)C3)c1 (stereo not drawn) : IC50 was ~1 µM
